Cited source: patent US12612412B2

pEC50 reference
test system: HMPV clinical isolate TN/1501/A1; assay: HMPV antiviral assay Method-B (clinical isolate TN/1501/A1 in LLC-MK2 cells, ATP-Lite readout); format: cell-based, Human metapneumovirus (HMPV); conditions: human metapneumovirus, LLC-MK2, 144 h, hMPV WT1501 (clinical isolate TN/1501/A1), 6 days
pEC50: −log10 of the molar value.

Here is how some molecules turned out for pEC50.
# MOLECULE, TARGET ENTITY, ENDPOINT, MEASURED RESULT
records = [
    ("COc1cc(C(=O)NCC(O)(c2cc3c(c(-c4cnn(C)c4)n2)OC[C@]3(C)C(N)=O)C(F)(F)F)cc2cn(C3CC3)nc12 (some centres unmarked)", "HMPV clinical isolate TN/1501/A1", "pEC50", "< 6.30"),
    ("COc1cc(C(=O)NC[C@](O)(c2cc3c(c(-c4ccc(F)c(Br)c4F)n2)OC[C@]3(C)C(N)=O)C2CC2)cc2cc(Br)cnc12", "HMPV clinical isolate TN/1501/A1", "pEC50", "> 6.30"),
    ("NC(=O)[C@@]1(CF)COc2c1cc([C@@](O)(CNC(=O)c1cc(OC3CC3)c3ncccc3c1)C1CC1)nc2-c1ccc(F)cc1", "HMPV clinical isolate TN/1501/A1", "pEC50", "< 6.30"),
    ("C[C@]1(C(N)=O)COc2c1cc([C@@](O)(CNC(=O)c1cc(F)c3nc(C4CC4)cn3c1)C(F)(F)F)nc2-c1ccc2c(c1)OC(F)(F)O2", "HMPV clinical isolate TN/1501/A1", "pEC50", "> 6.30"),
    ("C[C@]1(C(N)=O)COc2c1cc([C@@](O)(CNC(=O)c1cc(OC3CC3)c3nc(Cl)ccc3c1)C1CC1)nc2-c1ccc(F)c(F)c1Cl", "HMPV clinical isolate TN/1501/A1", "pEC50", "< 6.30"),
    ("COc1cc(C(=O)NC[C@](O)(c2cc3c(c(-c4ccc(F)c(Cl)c4F)n2)OC[C@]3(C)C(N)=O)C2(F)CC2)cc2cn(C(F)F)nc12", "HMPV clinical isolate TN/1501/A1", "pEC50", "> 6.30"),
    ("[2H]C([2H])([2H])[C@](O)(CNC(=O)c1cc(OC2CC2)c2ncccc2c1)c1cc2c(c(-c3ccc(F)cc3)n1)OC[C@]2(C)C(N)=O", "HMPV clinical isolate TN/1501/A1", "pEC50", "< 6.30"),
    ("COc1cc(C(=O)NC[C@](O)(c2cc3c(c(-c4ccc(F)c(Cl)c4)n2)OC[C@]3(C)C(N)=O)C2(F)CC2)cc2cn(C3CC3)nc12", "HMPV clinical isolate TN/1501/A1", "pEC50", "> 6.30"),
    ("COc1cc(C(=O)NC[C@](O)(c2cc3c(c(-c4c(F)ccc(Cl)c4F)n2)OC[C@]3(C)C(N)=O)C2CC2)cc2cn(C3(F)CC3)nc12", "HMPV clinical isolate TN/1501/A1", "pEC50", "> 6.30"),
    ("COc1cc(C(=O)NC[C@](O)(c2cc3c(c(-c4ccc5c(c4)OC(F)(F)O5)n2)OC[C@]3(C)C(N)=O)C(F)(F)F)cc2sc(C)nc12", "HMPV clinical isolate TN/1501/A1", "pEC50", "> 6.30"),
]

# input Tell me measured pEC50 for COc1cc(C(=O)NC[C@](O)(c2cc3c(c(-c4ccc(F)cc4)n2)OC[C@]3(C)C(N)=O)C(F)(F)F)cc2c(F)n(C3CC3)nc12 please.
# output < 6.30

# input Tell us which pEC50 value is on record for Cc1cnc2c(Cl)cc(C(=O)NC[C@](O)(c3cc4c(c(-c5cc(Cl)c(F)c(Cl)c5)n3)OC[C@]4(C)C(N)=O)C(F)(F)F)cc2c1
# output < 6.30
